B1: library; numbered along this chain (parent)
chain: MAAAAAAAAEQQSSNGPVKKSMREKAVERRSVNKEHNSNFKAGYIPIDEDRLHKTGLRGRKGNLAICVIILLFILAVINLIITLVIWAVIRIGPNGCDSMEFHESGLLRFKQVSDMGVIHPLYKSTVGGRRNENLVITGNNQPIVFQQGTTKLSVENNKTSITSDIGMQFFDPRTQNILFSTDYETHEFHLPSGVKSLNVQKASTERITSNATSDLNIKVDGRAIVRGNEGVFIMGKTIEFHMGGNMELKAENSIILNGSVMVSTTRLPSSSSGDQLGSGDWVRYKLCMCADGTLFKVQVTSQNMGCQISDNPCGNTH

Variants of: B1
Assay: SGCB cell-surface expression functional score (HA stain, bin4 vs bin1, normalised to synonymous) (log10 ratio); higher = more cell-surface SGCB (functional)
test readout: SGCB cell-surface expression functional score (log10)

- variant designation: "L287G"
  recorded result: -0.84
- variant designation: "A7I"
  recorded result: 0.29
- variant designation: "M262A"
  recorded result: 0.37
- variant designation: "R227G"
  recorded result: 0.48
- variant designation: "G117E"
  recorded result: -0.94
- variant designation: "S164M"
  recorded result: -2.05
- variant designation: "L84I"
  recorded result: 0.01
- variant designation: "H242C"
  recorded result: 1

Please look at the following variant next.
Retrieve SGCB cell-surface expression functional score (log10) measured for A212M and print it.
0.16
